Source listed as patent US12453725B2.

assay: physchem; conditions: 25 °C, aqueous buffer
Parameter measured: solubility

Cc1nn(C)cc1CN1CCC(c2ccc(C(=O)Nc3ccccc3N)cc2)CC1; ≥ 500 µg/mL
